Experimental protocol: pKa
Format: physicochemical
Observed property: pKa

So what's the measured pKa for this one? O=C(O)[C@H](CO)O[C@@H]1O[C@H](CO)[C@@H](O)[C@H](O)[C@@H]1O
~4.6
